# System: Streptococcus mutans
# Method Notes: Agar-plate minimum inhibitory concentration (Example 12)
# Format: cell-based
# Condition Context: agar, 37° C., 24 hours, read-out: Minimum Inhibitory Concentration
Observation Type: MIC (µg/mL)
The reply should be a number in µg/mL, with the unit left off.

Request the reported MIC associated with CCOC(=O)CNC(=O)Oc1ccc(Cl)c2cccnc12.CS(=O)(=O)O
500

====

# Tested on: Streptococcus mutans
# Method Notes: Agar-plate minimum inhibitory concentration (Example 12)
# Type: cell-based
# Condition Context: agar, 37° C., 24 hours, read-out: Minimum Inhibitory Concentration
compounds and their reported MIC
Field format: number, assumed µg/mL, no unit text.

Example cases with answers are listed next.
Compound: CCOC(=O)CNC(=O)Oc1cccc2ccc(C)nc12 [Example 3]
MIC, µg/mL: 500
//
Compound: CCOC(=O)CNC(=O)Oc1c(Cl)cc(Cl)c2cccnc12 [Example 4]
MIC, µg/mL: 500
//
Compound: CCOC(=O)CNC(=O)Oc1cccc2cccnc12 [Example 9]
MIC, µg/mL: 5
//
Compound: CCOC(=O)CNC(=O)Oc1ccc(Cl)c2cccnc12 [Example 1]
MIC, µg/mL: 100

Need MIC of CCOC(=O)CNC(=O)Oc1c(Br)cc(Br)c2cccnc12 [Example 2] , thanks.
50
